# measurement.description: pH of the salt solutions
# Format: physicochemical
# applied.conditions: aqueous solution of the salt, Table 5
recorded.metric: pH
// no unit, no text: just the number

Known results for compounds:
CC(=O)[C@H]1CC[C@H]2[C@@H]3CC[C@H]4C[C@H](O)CC[C@]4(C)[C@H]3[C@@H](OC(=O)CN3CCCC(C)C3)C[C@]12C (stereo partly shown) | 3.59
CCN(CC)CC(=O)O[C@H]1C[C@]2(C)[C@@H](C(C)=O)CC[C@H]2[C@@H]2CC[C@H]3C[C@H](O)[C@@H](SC#N)C[C@]3(C)[C@H]21 | 3.5
CCCCN(C)CC(=O)O[C@H]1C[C@]2(C)[C@@H](C(C)=O)CC[C@H]2[C@@H]2CC[C@H]3C[C@H](O)[C@@H](OCC)C[C@]3(C)[C@H]21 | 3.65
CCN(CC)CC(=O)O[C@H]1C[C@]2(C)[C@@H](C(C)=O)CC[C@H]2[C@@H]2CC[C@H]3C[C@H](O)[C@@H](Br)C[C@]3(C)[C@H]21 | 2.6
CC(=O)[C@H]1CC[C@H]2[C@@H]3CC[C@H]4C[C@H](O)CC[C@]4(C)[C@H]3[C@@H](OC(=O)CN(C)[C@H](C)CC(C)C)C[C@]12C | 3.62

Continue with the compound presented below.
// lookup pH for CCCN(CCC)CC(=O)O[C@H]1C[C@]2(C)[C@@H](C(C)=O)CC[C@H]2[C@@H]2CC[C@H]3C[C@H](O)CC[C@]3(C)[C@H]21 [Example 217] 3.53
